Each item that follows carries a reported IC50.
- TGT: Z-AAT (Homo sapiens, UniProt P01009, E366K)
- Construct: Purified Z-AAT protein from human plasma; Vertex Cambridge Sample 4942)
- Sequence (P01009 25-418 E366K): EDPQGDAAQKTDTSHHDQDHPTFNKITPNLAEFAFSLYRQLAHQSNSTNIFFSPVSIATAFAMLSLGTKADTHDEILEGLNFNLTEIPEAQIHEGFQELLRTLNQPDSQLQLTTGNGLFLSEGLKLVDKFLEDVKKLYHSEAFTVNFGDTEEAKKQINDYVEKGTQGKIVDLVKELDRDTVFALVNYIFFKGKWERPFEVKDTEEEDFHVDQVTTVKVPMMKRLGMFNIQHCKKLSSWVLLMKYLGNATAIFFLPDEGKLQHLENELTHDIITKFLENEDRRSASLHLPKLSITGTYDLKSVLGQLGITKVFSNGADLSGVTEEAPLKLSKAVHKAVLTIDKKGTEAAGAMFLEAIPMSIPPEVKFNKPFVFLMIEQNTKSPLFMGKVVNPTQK
- RUN_DESCRIPTION: Biochemical Assay (Z-AAT Elastase Activity Assay)
- EXPERIMENTAL_CONTEXT: purified Z-AAT protein from human plasma and purified human neutrophil elastase
- Text: This assay measured the modulation of compounds 1-342 on Z-AAT SERPIN activity using purified Z-AAT protein and purified human neutrophil elastase (hNE). Normally, when active monomeric Z-AAT encounters a protease such as trypsin or elastase, it forms a 1:1 covalent “suicide” complex in which both the AAT and protease are irreversibly inactivated. However, compounds binding to Z-AAT can lead to a decrease in SERPIN activity. […]

In the examples that follow, each entry is paired with its recorded IC50.
{"COMPOUND": "O=C(OC1O[C@H](C(=O)O)[C@@H](O)[C@H](O)[C@H]1O)c1ccc(-c2c(C3CCOCC3)n(-c3ccc(F)cc3)c3cc4cn[nH]c4cc23)cc1 (stereo partly shown)", "TGT": "Z-AAT (Homo sapiens, UniProt P01009, E366K)", "IC50": "> 1 µM"}
{"COMPOUND": "O=C(O)c1ccc(-c2c(C3CCOCC3)n(-c3ccc(F)cc3)c3cc4cn[nH]c4cc23)cc1F", "TGT": "Z-AAT (Homo sapiens, UniProt P01009, E366K)", "IC50": "> 1 µM"}

Reported IC50 ( Fc1ccc(-n2c(C3CCOCC3)c(-c3ccncc3)c3cc4[nH]ncc4cc32)cc1 ) = > 30 µM

Record CCC1(c2c(-c3ccc(P(C)(C)=O)cc3)c3cc4[nH]ncc4cc3n2-c2ccc(F)cc2)COC1 , field IC50: > 30 µM

Field IC50 (entry NS(=O)(=O)c1ccc(-c2c(C3CCOCC3)n(-c3ccc(F)cc3)c3cc4cn[nH]c4cc23)cc1 ) reads > 30 µM

// IC50 lookup, compound = CCC1(c2c(-c3cnn(C(C)(C)C(=O)O)c3)c3cc4[nH]ncc4cc3n2-c2ccc(F)cc2)COC1 , result: > 1 µM

Just so you know, measured IC50 for COCC(C)(C)c1c(-c2ccc(C(=O)N[C@@H]3C(=O)N[C@H]3C)cc2)c2cc3[nH]ncc3cc2n1-c1ccc(F)cc1 came out at > 1 µM
